B1: Membrane-associated guanylate kinase, WW and PDZ domain-containing protein 2, residues 296 to 340; numbered along this chain, Q86UL8 (parent)
chain: EDNEEPDPLPDNWEMAYTEKGEVYFIDHNTKTTSWLDPRLAKKAK

variants of: B1; test: abundance fitness (aPCA) (normalised: wild type 0, dead -1); higher = more abundant; growth selection in yeast, the domain comes from the species named; conditions: Homo sapiens
Each entry below carries its reported abundance fitness.
Write the value as a bare number.

>>> recorded_value("N12E")
-0.303
>>> recorded_value("W35C")
-0.527
>>> recorded_value("D27N")
-0.151
>>> recorded_value("P8R")
0.052

Name the reported abundance fitness value associated with the variant K31H
0.103

# query: abundance fitness of entry R39N
-0.289

Suppose we examine the variant A16T ; what abundance fitness value has been reported?
-0.335

Give its abundance fitness value. Item: N12T
-0.224

Value lookup for abundance fitness; key = K43D
0.029
